test system: SERPINA7 (gene 6906); experiment: CCTE_GLTED_hTBG: CCTE's human Thyroxine-binding Globulin (TBG) Inhibition Assay, Great Lakes Toxicology and Ecology Division (GLTED) Lab (AID 2284343);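 further: active chemicals lower fluorescence versus DMSO baseline by displacing probe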
Activity calls are given as the source filed them. How the source made its calls: active means hit-call score of the fitted dose curve at least 0.9, where 1 is the maximum; inconclusive means response in the unintended direction; inactive means score below 0.9.
// one of 1 for active, 0 for inactive, no free text

Would you please look over these solved cases?
{"columns": ["compound", "subject_of_test", "discrete_label"],
 "data": [
  ["CCOC(=O)C(C)OC(=O)c1cc(Oc2ccc(C(F)(F)F)cc2Cl)ccc1[N+](=O)[O-] (stereo unspecified)", "SERPINA7 (gene 6906)", 0],
  ["CCCN(CC)CC1COC2(CCC(C(C)(C)C)CC2)O1 (stereo unspecified)", "SERPINA7 (gene 6906)", 0]
]}

Q) Answer briefly: the call reported for CCCCOCN(C(=O)CCl)c1c(CC)cccc1CC in this assay.
A) 1

Q) Answer briefly: the call reported for C=C(C)CN(CC)c1c([N+](=O)[O-])cc(C(F)(F)F)cc1[N+](=O)[O-] in this assay.
A) 1

Q) Answer briefly: the call reported for CC1(C)CCC(=Cc2ccc(Cl)cc2)C1(O)Cn1cncn1 (stereo unspecified) in this assay.
A) 1

Q) Answer briefly: the call reported for CCCCC(O)(Cn1cncn1)c1ccc(Cl)cc1Cl (stereo unspecified) in this assay.
A) 1
